Source of measurements: patent US20250270339A1

STUDY TARGET: T1, Full length Mouse TfR on CHO cells (mouse, UniProt Q62351 1-763)
T1 construct: also called CHO + muTfR
T1 sequence (Q62351 whole entry): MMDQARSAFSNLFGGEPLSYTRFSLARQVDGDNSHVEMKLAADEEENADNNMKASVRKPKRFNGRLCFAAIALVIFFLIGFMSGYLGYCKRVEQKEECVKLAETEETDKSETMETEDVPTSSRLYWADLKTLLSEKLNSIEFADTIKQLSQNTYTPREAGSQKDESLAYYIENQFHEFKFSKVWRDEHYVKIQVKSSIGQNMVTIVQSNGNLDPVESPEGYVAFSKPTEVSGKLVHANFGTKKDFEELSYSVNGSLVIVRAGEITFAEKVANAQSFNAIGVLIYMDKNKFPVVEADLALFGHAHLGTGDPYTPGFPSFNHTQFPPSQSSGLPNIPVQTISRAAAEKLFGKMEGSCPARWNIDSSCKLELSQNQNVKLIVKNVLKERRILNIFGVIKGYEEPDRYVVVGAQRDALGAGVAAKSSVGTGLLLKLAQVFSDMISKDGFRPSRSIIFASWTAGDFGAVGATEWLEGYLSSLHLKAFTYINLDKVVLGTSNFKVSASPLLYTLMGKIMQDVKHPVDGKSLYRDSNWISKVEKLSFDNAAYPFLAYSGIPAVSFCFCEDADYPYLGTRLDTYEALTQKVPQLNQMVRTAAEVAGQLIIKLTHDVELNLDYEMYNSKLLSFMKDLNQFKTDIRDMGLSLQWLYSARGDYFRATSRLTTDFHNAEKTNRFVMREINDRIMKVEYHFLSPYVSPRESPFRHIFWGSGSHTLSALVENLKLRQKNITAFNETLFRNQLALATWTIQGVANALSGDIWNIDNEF
METHOD: FACS, CHO+muTfR

- BINDER: "TfR3 (mouse hybridoma antibody) (antibody, V domains shown, mouse IgG in hybridoma supernatant) VH: QVQLRQSGPELVKPGASVRISCKASGYTFTSFYIHWVKQRPGQGLEWIGWIYPGDVNTHYSDKFKGKATLTADKSSSTAYMQLSSLTSEDSAVYFCAREGYGYFAYWGQGTLVTVSA VL: DIVMTQSPSSLTVTAGEKVTMSCKSSQSLLNSGNQKNYLTWYQQKPGQPPKLLIYWASTRESGVPDRFTGVGSGTDFTLTISSVQAEDLAVYYCQNDYSYPLTFGSGTKLELK"
  binding result: "no binding"
- BINDER: "TfR11 (mouse hybridoma antibody) (antibody, V domains shown, mouse IgG in hybridoma supernatant) VH: EVQLQQSGTVLARPGASVKMSCKASGYSFTSYWMHWVKQRPGQGLEWIGAIFPGNIDTIYNQKFKDKAKLTAVTSASTAYMELSSLTNEDSAVYFCTRLYYDYVWGAGTTVTVSS VL: DIKMTQSPSSMYASLGERVTLTCKASQDINSYLSWFQQKPGKSPKTLIYHVNRLVDGVPSRFSGSGSGQDYSLTISSLEYEDMGIYYCLQYDEFPYTFGGGTKLEIK"
  binding result: "no binding"
- BINDER: "TfR10 (mouse hybridoma antibody) (antibody, V domains shown, mouse IgG in hybridoma supernatant) VH: QVQLQQSGPELVKPGASVKMSCKASGYTFTSYYIHWVKQRPGQGLEWIGWIYPGDGNTNYNEKFKGKTTLTADKSSSTAYMLLSSLTSEDSAIYFCARDGSIPFAYWGQGTLVTVSA VL: DIVMTQSPSSLTVTAGEKVTMSCKSSQSLLNSGNQKNYLTWYQQKPGQPPKLLIYWASTRESGVPDRFTGSGSGTDFTLTISSVQAEDLAVYYCQNDYSYPLTFGAGTKLELK"
  binding result: "no binding"
